Reference for the values: PubChem BioAssay (NCI)

- Tested on: K-562 leukemia
- Method Description: NCI-60 one-dose screen, 48 h
- Assay Conditions: 10 µM unless noted
- Protocol: Cells are grown in 96 well plates and exposed to the test compound for 48 hours. Compounds are tested at a single concentration, which is 10^-5 M for most compounds. The reported endpoint is percent growth (GI% or GIPRCNT), where numbers from 0 - 100% represent growth inhibition, and numbers from -100% - 0 represent cell death. For example, a value of 40 represents 60% growth inhibition. A value of 0 means no net growth occurred over the course of the experiment. […]
The panel holds about 83,000 compounds, 20% with a hit somewhere; the sample as a whole holds those more often. The source made the active and inactive calls. How the source made its calls: active means growth percent below 10; inactive means the rest.
Mark one answer only. Choices: 1 for active, 0 for inactive

Example entries begin here.
{"Molecule": "O=C(CCCCCCN1CC(=O)N2[C@@H](c3cccc(Cl)c3)c3[nH]c4ccccc4c3C[C@H]2C1=O)NO", "Category Label": 0}
{"Molecule": "N/C(=N\\OC(=O)CSc1nc2ccccc2s1)c1ccc(Cl)cc1", "Category Label": 0}
{"Molecule": "Oc1ccc(CSc2nnc(-c3ccccc3)n2-c2ccccc2)c2cccnc12", "Category Label": 0}
{"Molecule": "O=C(CCCCCCN1CC(=O)N2[C@@H](c3cccc(Br)c3)c3[nH]c4ccccc4c3C[C@H]2C1=O)NO", "Category Label": 0}
{"Molecule": "CCOc1c(C#N)c(Nc2ccc(S(N)(=O)=O)cc2)c(C#N)c2nnc(C)n12", "Category Label": 0}

## Task Check the results log: what was the call for CC(C)=CCc1c2c(c(O)c3c1O[C@]14C(=C[C@@H]5C[C@H]1C(C)(C)O[C@@]4(C/C=C(/C)C(=O)O)C5=O)C3=O)CC(O)C(C)(C)O2 (some centres not stated) ?
## Result 1

## Task Also `COc1c([C@@H](CC(C)C)OC(C)=O)ccc2c1C(=O)OCc1cc(C)cc(O)c1O2` ?
## Result 0
